The measured values listed here are drawn from patent US20250152704A1.

# system.tested: T1, Recombinant in-house Human FcRn protein (human, UniProt P55899 24-297; P61769 21-119, limits assumed)
# T1 construct: also called huFCRN; HuFcRn
# method.summary: competitive binding ELISA, pH 6.0; competitor Efgartigimod (Fc Fragment 1)
measure.name: IC50 (nM)
Lab book: enter the figure in nM, no units written.

Exam item: Give its IC50 value. Item: Fc Fragment 12 (other, Human IgG1 Fc fragment; substitutions already in the entry) DKTHTCPPCPAPELLGGPSVFLFPPKPKDTLYITREPEVTCVVVDVSHEDPEVKFNWYVDGVEVHNAKTKPREEQYNSTYRVVSVLTVLHQDWLNGKEYKCKVSNKALPAPIEKTISKAKGQPREPQVYTLPPSRDELTKNQVSLTCLVKGFYPSDIAVEWESNGQPENNYKTTPPVLDSDGSFFLYSKLTVDKSRWQQGNVFSCSVMHEALRYHYTQKSLSLSPG
Marked response: 3.73

Exam item: And Fc Fragment 14 (other, Human IgG1 Fc fragment; substitutions already in the entry) DKTHTCPPCPAPELLGGPSVFLFPPKPKDTLYITREPEVTCVVVDVSHEDPEVKFNWYVDGVEVHNAKTKPREEQYNSTYRVVSVLTVLHQDWLNGKEYKCKVSNKALPAPIEKTISKAKGQPREPQVYTLPPSRDELTKNQVSLTCLVKGFYPSDIAVEWESNGQPENNYKTTPPVLDSDGSFFLYSKLTVDKSRWQQGNVFSCSVLHEALRFHYTQKSLSLSPG ?
Marked response: 3.85

Exam item: Next record, please: Fc Fragment 10 (other, Human IgG1 Fc fragment; substitutions already in the entry) DKTHTCPPCPAPELLGGPSVFLFPPKPKDTLYITREPEVTCVVVDVSHEDPEVKFNWYVDGVEVHNAKTKPREEQYNSTYRVVSVLTVLHQDWLNGKEYKCKVSNKALPAPIEKTISKAKGQPREPQVYTLPPSRDELTKNQVSLTCLVKGFYPSDIAVEWESNGQPENNYKTTPPVLDSDGSFFLYSKLTVDKSRWQQGNVFSCSVLHEALKYHYTQKSLSLSPG
Marked response: 5.03

Exam item: Continue with Fc Fragment 1 (other, Human IgG1 Fc fragment (EU 221-446) with the named substitutions already in the entry; also called Efgartigimod (Efgart); Efgartigimod without the C-terminal lysine) DKTHTCPPCPAPELLGGPSVFLFPPKPKDTLYITREPEVTCVVVDVSHEDPEVKFNWYVDGVEVHNAKTKPREEQYNSTYRVVSVLTVLHQDWLNGKEYKCKVSNKALPAPIEKTISKAKGQPREPQVYTLPPSRDELTKNQVSLTCLVKGFYPSDIAVEWESNGQPENNYKTTPPVLDSDGSFFLYSKLTVDKSRWQQGNVFSCSVMHEALKFHYTQKSLSLSPG
Marked response: 4.82
